- target-or-system: hIDO1 (Homo sapiens)
- Construct: The full ORF of hIDO1 was cloned into the mammalian expression vector pcDNA6/myc-His; myc-His (vector-encoded); host or cells: HEK 293 T
- assay-comment: Cellular hIDO1 inhibition (kynurenine production) in transiently transfected HEK 293 T cells
- Type: cell-based
# reported inhibition at 200 µM; entries follow

- compound: "Brc1ccc(Nc2c[nH]nn2)cc1 [Compound 78, N-(4-Bromophenyl)-1,2,3-triazol-4-amine, reference compound]"
  target-or-system: "hIDO1 (Homo sapiens)"
  inhibition at 200 µM: "97%"
- compound: "O=C(c1ccoc1)c1cnn[nH]1"
  target-or-system: "hIDO1 (Homo sapiens)"
  inhibition at 200 µM: "73%"
- compound: "O=C(c1cscn1)c1cnn[nH]1"
  target-or-system: "hIDO1 (Homo sapiens)"
  inhibition at 200 µM: "17%"
- compound: "CNc1ccc(Cl)cc1-c1nc[nH]n1"
  target-or-system: "hIDO1 (Homo sapiens)"
  inhibition at 200 µM: "93%"
- compound: "O=C(c1ccc(Br)cc1)c1cnn[nH]1"
  target-or-system: "hIDO1 (Homo sapiens)"
  inhibition at 200 µM: "55%"
- compound: "O=C(c1ccc(Cl)cc1)c1cnn[nH]1"
  target-or-system: "hIDO1 (Homo sapiens)"
  inhibition at 200 µM: "37%"
- compound: "O=C(c1cnn[nH]1)c1ccccc1O"
  target-or-system: "hIDO1 (Homo sapiens)"
  inhibition at 200 µM: "12%"
- compound: "Nc1cccc(N)c1-c1nc[nH]n1"
  target-or-system: "hIDO1 (Homo sapiens)"
  inhibition at 200 µM: "56%"

----------
- target-or-system: purified recombinant IDO1 (Homo sapiens, UniProt P14902)
- Construct: Full-length human IDO1 gene was cloned into the pET-28a vector; inferred from pET-28a vector and HisTrap purification; made in house; host or cells: E. coli Rosetta (DE3)
- Sequence (P14902 whole entry): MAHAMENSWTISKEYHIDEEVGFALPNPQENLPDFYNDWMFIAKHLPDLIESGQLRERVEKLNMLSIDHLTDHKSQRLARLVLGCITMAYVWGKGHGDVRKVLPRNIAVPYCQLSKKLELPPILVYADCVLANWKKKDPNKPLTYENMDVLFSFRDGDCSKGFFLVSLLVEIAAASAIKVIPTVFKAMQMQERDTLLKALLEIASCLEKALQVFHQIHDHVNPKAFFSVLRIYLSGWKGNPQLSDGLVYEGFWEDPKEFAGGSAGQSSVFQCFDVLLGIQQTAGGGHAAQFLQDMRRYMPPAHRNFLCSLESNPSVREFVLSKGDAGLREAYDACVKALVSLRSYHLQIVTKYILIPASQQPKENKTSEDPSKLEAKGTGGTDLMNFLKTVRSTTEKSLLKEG
- assay-comment: Enzymatic IDO1 inhibition assay (ascorbate/methylene blue reduction system, HPLC detection of kynurenine)
- Format: biochemical
- settings: enzymatic; L-Trp 100 µM, 0.01% Triton X-100, 5% DMSO, 20 min at room temperature, pH 6.5; duplicates; read-out: IC50 [ μ M] (SD)

- molecule: "O=C(Nc1ccc(Cl)cc1-c1nc[nH]n1)C1CCC1 [Compound 150]"
  unit: "µM"
  result-comparator: ">"
  IC50: 100
- molecule: "c1ccc(CCNc2ccccc2-c2cnn[nH]2)cc1 [Compound 28]"
  unit: "µM"
  result-comparator: ">"
  IC50: 250
- molecule: "O=C(c1cccc(O)c1)c1cnn[nH]1 [Compound 107]"
  unit: "µM"
  result-comparator: ">"
  IC50: 1000
- molecule: "OC(c1ccccc1)c1c[nH]nn1 (centres unmarked) [Compound 85, Phenyl(1,2,3-triazol-4-yl)methanol]"
  unit: "µM"
  result-comparator: ">"
  IC50: 1000
- molecule: "CON=C(c1ccccc1)c1c[nH]nn1 [Compound 87]"
  unit: "µM"
  result-comparator: ">"
  IC50: 1000
- molecule: "O=S(=O)(c1ccccc1)c1c[nH]nn1 [Compound 84, 4-(Phenylsulfonyl)-1H-1,2,3-triazole]"
  unit: "µM"
  result-comparator: ">"
  IC50: 1000
- molecule: "O=C(c1cnn[nH]1)c1cccs1 [Compound 116]"
  unit: "µM"
  result-comparator: "="
  IC50: 17
- molecule: "Nc1c(F)cccc1-c1nc[nH]n1 [Compound 140]"
  unit: "µM"
  result-comparator: "="
  IC50: 0.81
- molecule: "Nc1cc(F)c(Br)cc1-c1nc[nH]n1 [Compound 144]"
  unit: "µM"
  result-comparator: "="
  IC50: 0.034
- molecule: "c1ccc(Oc2cnn[nH]2)cc1 [Compound 82, 4-(Phenoxy)-1,2,3-triazole]"
  unit: "µM"
  result-comparator: ">"
  IC50: 1000
- molecule: "c1ccc(COc2ccccc2-c2c[nH]nn2)cc1 [Compound 25, 4–(2-Benzyloxyphenyl)-1,2,3-triazole]"
  unit: "µM"
  result-comparator: ">"
  IC50: 500
- molecule: "O=C(c1ccc(O)cc1)c1cnn[nH]1 [Compound 108]"
  unit: "µM"
  result-comparator: ">"
  IC50: 1000
- molecule: "O=C(Nc1ccc(Cl)cc1-c1nc[nH]n1)C1CCCC1 [Compound 151]"
  unit: "µM"
  result-comparator: ">"
  IC50: 100
- molecule: "Clc1cc(Cl)c(-c2c[nH]nn2)cc1Cl [Compound 52, 4–(2,4,5-Trichlorophenyl)-1,2,3-triazole]"
  unit: "µM"
  result-comparator: "="
  IC50: 33
- molecule: "CCc1ccc(O)c(-c2cnn[nH]2)c1 [Compound 36, 4-Ethyl-2-(1H-1,2,3-triazol-5-yl)phenol]"
  unit: "µM"
  result-comparator: "="
  IC50: 0.25
- molecule: "COc1cccc(OC)c1-c1c[nH]nn1 [Compound 45, 4–(2,6-Dimethoxyphenyl)-1,2,3-triazole]"
  unit: "µM"
  result-comparator: ">"
  IC50: 1000
- molecule: "O=C(c1ccccc1)c1cnn[nH]1 [Compound 99, Phenyl(1H-1,2,3-triazol-5-yl)methanone]"
  unit: "µM"
  result-comparator: "="
  IC50: 430
- molecule: "CCCCc1cccc(-c2c[nH]nn2)c1 [Compound 24, 4–(3-Butylphenyl)-1,2,3-triazole]"
  unit: "µM"
  result-comparator: "="
  IC50: 34
- molecule: "O=C(c1cccnc1)c1cnn[nH]1 [Compound 121]"
  unit: "µM"
  result-comparator: "="
  IC50: 650
- molecule: "Brc1cccc(-c2nc[nH]n2)c1 [Compound 135, 3–(3-Bromophenyl)-1H-1,2,4-triazole]"
  unit: "µM"
  result-comparator: "="
  IC50: 16
- molecule: "NC(=O)c1[nH]nnc1-c1ccc(Cl)cc1 [Compound 66, reference compound]"
  unit: "µM"
  result-comparator: "="
  IC50: 800
- molecule: "Brc1ccc(Nc2c[nH]nn2)cc1 [Compound 78, N-(4-Bromophenyl)-1,2,3-triazol-4-amine, reference compound]"
  unit: "µM"
  result-comparator: "="
  IC50: 52
- molecule: "Nc1ccc(F)cc1-c1nc[nH]n1 [Compound 143]"
  unit: "µM"
  result-comparator: "="
  IC50: 0.15
- molecule: "Oc1ccc(-c2c[nH]nn2)cc1 [Compound 20, 4–(1,2,3-Triazol-4-yl)phenol]"
  unit: "µM"
  result-comparator: ">"
  IC50: 1000
- molecule: "Clc1cncc(-c2nc[nH]n2)n1 [Compound 162]"
  unit: "µM"
  result-comparator: "="
  IC50: 250
- molecule: "COc1ccccc1C(=O)c1cnn[nH]1 [Compound 103]"
  unit: "µM"
  result-comparator: ">"
  IC50: 1000
- molecule: "O=C(Nc1ccc(Cl)cc1-c1nc[nH]n1)C1CC1 [Compound 149]"
  unit: "µM"
  result-comparator: "="
  IC50: 0.49
- molecule: "Oc1ccc(CCc2ccccc2)cc1-c1cnn[nH]1 [Compound 39]"
  unit: "µM"
  result-comparator: "="
  IC50: 160
- molecule: "Oc1cccc(O)c1-c1cnn[nH]1 [Compound 44]"
  unit: "µM"
  result-comparator: "="
  IC50: 13
